The reported measurements were obtained from ChEMBL document CHEMBL5316298.

test: Hemolytic activity in sheep erythrocytes incubated for 1 hr by absorbance based analysis; type: toxicity, cell-based, Ovis aries, Erythrocyte
measurement-kind: HC50 at 1 h

HC50 at 1 h measured on `CCCNC(=O)C[N+](C)(C)CCCOc1ccc(/C=C/C(=O)c2c(OC)cc3c(c2O)C=CC(C)(C)O3)cc1.[Br-]` = 210 µg/mL

HC50 at 1 h measured on `COc1cc2c(c(O)c1C(=O)/C=C/c1ccc(OCCC[N+](C)(C)CC(=O)N3CCSCC3)cc1)C=CC(C)(C)O2.[Br-]` = 416 µg/mL

HC50 at 1 h measured on `CCCCNC(=O)C[N+](C)(C)CCCOc1ccc(/C=C/C(=O)c2c(OC)cc3c(c2O)C=CC(C)(C)O3)cc1.[Br-]` = 58.3 µg/mL

HC50 at 1 h measured on `COc1cc2c(c(O)c1C(=O)/C=C/c1ccc(OCCCC[N+](C)(C)CC(=O)N(C(C)C)C(C)C)cc1)C=CC(C)(C)O2.[Br-]` = 657 µg/mL

HC50 at 1 h measured on `COc1cc2c(c(O)c1C(=O)/C=C/c1ccc(OCCC[N+](C)(C)CC(=O)N(C(C)C)C(C)C)cc1)C=CC(C)(C)O2.[Br-]` = 158 µg/mL

HC50 at 1 h measured on `COc1cc2c(c(O)c1C(=O)/C=C/c1ccc(OCCCCC[N+](C)(C)CC(=O)N(CC(C)C)CC(C)C)cc1)C=CC(C)(C)O2.[Br-]` = 374 µg/mL

----------
test system: Staphylococcus aureus; test: Antibacterial activity against methicillin-resistant Staphylococcus aureus clinical isolate 2 incubated for 16 to 18 hrs by CLSI-based microbroth dilution method; type: functional; settings: time 16-18 hrs
# Lookup of reported MIC keyed by entry
# value in µg/mL; strip the unit string

Examples with answers:
COc1cc2c(c(O)c1C(=O)/C=C/c1ccc(OCCCC[N+](C)(C)CC(=O)N3CCSCC3)cc1)C=CC(C)(C)O2.[Br-] :: 2
CCCCCCNC(=O)C[N+](C)(C)CCCCOc1ccc(/C=C/C(=O)c2c(OC)cc3c(c2O)C=CC(C)(C)O3)cc1.[Br-] :: 2
CCCN(CCC)C(=O)C[N+](C)(C)CCCCCOc1ccc(/C=C/C(=O)c2c(OC)cc3c(c2O)C=CC(C)(C)O3)cc1.[Br-] :: 4
COc1cc2c(c(O)c1C(=O)/C=C/c1ccc(O)cc1)C=CC(C)(C)O2 [XANTHOHUMOL C] :: 4
COc1cc2c(c(O)c1C(=O)/C=C/c1ccc(OCCC[N+](C)(C)CC(=O)N(CC(C)C)CC(C)C)cc1)C=CC(C)(C)O2.[Br-] :: 4

MIC measured on `COc1cc2c(c(O)c1C(=O)/C=C/c1ccc(OCCC[N+](C)(C)CC(=O)N3CCSCC3)cc1)C=CC(C)(C)O2.[Br-]` = 2

MIC measured on `CCCCCCNC(=O)C[N+](C)(C)CCCOc1ccc(/C=C/C(=O)c2c(OC)cc3c(c2O)C=CC(C)(C)O3)cc1.[Br-]` = 2

----------
# Lookup of reported MIC keyed by entry
tested on: Staphylococcus aureus; test: Antibacterial activity against methicillin-resistant Staphylococcus aureus clinical isolate 8 incubated for 16 to 18 hrs by CLSI-based microbroth dilution method; format: functional; details: time 16-18 hrs
# value in µg/mL; strip the unit string

MIC measured on `COc1cc(O)c(CC=C(C)C)c(O)c1C(=O)/C=C/c1ccc(O)cc1` = 8

MIC measured on `COc1cc2c(c(O)c1C(=O)/C=C/c1ccc(OCCC[N+](C)(C)CC(=O)N(C(C)C)C(C)C)cc1)C=CC(C)(C)O2.[Br-]` = 2

MIC measured on `COc1cc2c(c(O)c1C(=O)/C=C/c1ccc(OCCC[N+](C)(C)CC(=O)N(CC(C)C)CC(C)C)cc1)C=CC(C)(C)O2.[Br-]` = 2

MIC measured on `CCCCNC(=O)C[N+](C)(C)CCCCCOc1ccc(/C=C/C(=O)c2c(OC)cc3c(c2O)C=CC(C)(C)O3)cc1.[Br-]` = 2

MIC measured on `COc1cc2c(c(O)c1C(=O)/C=C/c1ccc(OCCCC[N+](C)(C)CC(=O)N3CCSCC3)cc1)C=CC(C)(C)O2.[Br-]` = 4

MIC measured on `CCCCN(CCCC)C(=O)C[N+](C)(C)CCCCOc1ccc(/C=C/C(=O)c2c(OC)cc3c(c2O)C=CC(C)(C)O3)cc1.[Br-]` = 4

MIC measured on `COc1cc2c(c(O)c1C(=O)/C=C/c1ccc(OCCCCC[N+](C)(C)CC(=O)N3CCSCC3)cc1)C=CC(C)(C)O2.[Br-]` = 4

MIC measured on `CCCN(CCC)C(=O)C[N+](C)(C)CCCOc1ccc(/C=C/C(=O)c2c(OC)cc3c(c2O)C=CC(C)(C)O3)cc1.[Br-]` = 2

MIC measured on `CCCCCNC(=O)C[N+](C)(C)CCCCOc1ccc(/C=C/C(=O)c2c(OC)cc3c(c2O)C=CC(C)(C)O3)cc1.[Br-]` = 4

MIC measured on `COc1cc2c(c(O)c1C(=O)/C=C/c1ccc(OCCCCC[N+](C)(C)CC(=O)N(CC(C)C)CC(C)C)cc1)C=CC(C)(C)O2.[Br-]` = 2

----------
# Lookup of reported MIC keyed by entry
system: Staphylococcus aureus; test: Antibacterial activity against methicillin-resistant Staphylococcus aureus clinical isolate 4 incubated for 16 to 18 hrs by CLSI-based microbroth dilution method; format: functional; conditions: time 16-18 hrs
# value in µg/mL; strip the unit string

Examples with answers:
CCCN(CCC)C(=O)C[N+](C)(C)CCCOc1ccc(/C=C/C(=O)c2c(OC)cc3c(c2O)C=CC(C)(C)O3)cc1.[Br-] :: 2
CCCNC(=O)C[N+](C)(C)CCCCOc1ccc(/C=C/C(=O)c2c(OC)cc3c(c2O)C=CC(C)(C)O3)cc1.[Br-] :: 4
COc1cc2c(c(O)c1C(=O)/C=C/c1ccc(OCCCC[N+](C)(C)CC(=O)N(C(C)C)C(C)C)cc1)C=CC(C)(C)O2.[Br-] :: 2

// below: MIC requested for another compound
MIC measured on `COc1cc2c(c(O)c1C(=O)/C=C/c1ccc(OCCCCC[N+](C)(C)CC(=O)N3CCSCC3)cc1)C=CC(C)(C)O2.[Br-]` = 4

----------
system: Staphylococcus aureus; experiment: Antibacterial activity against methicillin-resistant Staphylococcus aureus clinical isolate 2 incubated for 16 to 18 hrs by CLSI-based microbroth dilution method; format: functional; details: time 16-18 hrs
# Lookup of reported MIC keyed by entry
# value in µg/mL; strip the unit string

Examples with answers:
CCCCN(CCCC)C(=O)C[N+](C)(C)CCCOc1ccc(/C=C/C(=O)c2c(OC)cc3c(c2O)C=CC(C)(C)O3)cc1.[Br-] :: 2
COc1cc(O)c(CC=C(C)C)c(O)c1C(=O)/C=C/c1ccc(O)cc1 [XANTHOHUMOL] :: 8
CCCCCNC(=O)C[N+](C)(C)CCCCCOc1ccc(/C=C/C(=O)c2c(OC)cc3c(c2O)C=CC(C)(C)O3)cc1.[Br-] :: 2
CCCCN(CCCC)C(=O)C[N+](C)(C)CCCCCOc1ccc(/C=C/C(=O)c2c(OC)cc3c(c2O)C=CC(C)(C)O3)cc1.[Br-] :: 2

// below: MIC requested for another molecule
MIC measured on `CCCCN(CCCC)C(=O)C[N+](C)(C)CCCCOc1ccc(/C=C/C(=O)c2c(OC)cc3c(c2O)C=CC(C)(C)O3)cc1.[Br-]` = 2

----------
# Lookup of reported MIC keyed by entry
test system: Staphylococcus aureus; experiment: Antibacterial activity against methicillin-resistant Staphylococcus aureus clinical isolate 8 incubated for 16 to 18 hrs by CLSI-based microbroth dilution method; assay type: functional; settings: time 16-18 hrs

Examples with answers:
CCCNC(=O)C[N+](C)(C)CCCOc1ccc(/C=C/C(=O)c2c(OC)cc3c(c2O)C=CC(C)(C)O3)cc1.[Br-] :: 2 µg/mL
CCCN(CCC)C(=O)C[N+](C)(C)CCCCOc1ccc(/C=C/C(=O)c2c(OC)cc3c(c2O)C=CC(C)(C)O3)cc1.[Br-] :: 2 µg/mL
COc1cc2c(c(O)c1C(=O)/C=C/c1ccc(OCCCCC[N+](C)(C)CC(=O)N3CCOCC3)cc1)C=CC(C)(C)O2.[Br-] :: 4 µg/mL
CCCCCNC(=O)C[N+](C)(C)CCCOc1ccc(/C=C/C(=O)c2c(OC)cc3c(c2O)C=CC(C)(C)O3)cc1.[Br-] :: 4 µg/mL

// below: MIC requested for another compound
Tested on Staphylococcus aureus: `CCCCCCNC(=O)C[N+](C)(C)CCCCOc1ccc(/C=C/C(=O)c2c(OC)cc3c(c2O)C=CC(C)(C)O3)cc1.[Br-]` . Observed MIC: 4 µg/mL
